# Experiment Notes: binders of probe aFSTL3 on microarray, primary screen, stem cell growth factor project, biochemical, small-molecule microarray, fluorescence 635/667 (AID 1064);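 further: measures binding of the biotinylated anti-FSTL3 antibody to printed compounds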
# Condition Set: higher = more signal
Tag: rule met if measured composite z-score is not below -0.2, rule not met if it is.

{"Compound": "O=C(O)C1=CC[C@H]2C(=O)N(c3ccccc3)C(=O)[C@@H]12", "Class Label": "rule met"}
{"Compound": "CC(C)N1C(=O)[C@@]2(Cc3ccccc31)c1ccccc1C(=O)N(Cc1ccccc1)[C@H]2c1ccc(CO)cc1", "Class Label": "rule not met"}
{"Compound": "C=C(C)C1CN([C@H](CO)c2ccccc2)C(=O)/C1=C\\c1ccccc1 (stereo not given in full)", "Class Label": "rule not met"}
{"Compound": "CCCCCN1CC=CC23O[C@@H]4/C=C\\CCCOC(=O)C4[C@H]2C(=O)N(CCCCCO)[C@@H]3C1=O (stereo not given in full)", "Class Label": "rule met"}

---

# Experiment Notes: A549 cell viability effects, profiling panel, calcein-AM fluorescence, 48 h, basal (AID 1162); further: test concentration not given here
# Condition Set: higher = more signal
Recorded z-score determines the label; the label ranges are low range = under -0.3, mid range = from -0.3 up to 0.06, high range = 0.06 and over

{"Smiles Entry": "CN(C)CCCCCCNC(=O)[C@@H]1C[C@@H]2C(=O)N[C@@H](CCCC[N+](C)(C)C)C(=O)N2[C@@H]1c1cccc(OCCO)c1", "Class Label": "mid range"}
{"Smiles Entry": "COC(=O)[C@@]1(Cc2ccccc2)[C@H]2c3cc(C(=O)N(C)C)n(Cc4nc5ccccc5[nH]4)c3C[C@H]2CN1C(=O)c1ccccc1", "Class Label": "high range"}
{"Smiles Entry": "C=CCNC(=O)[C@H]1[C@@H]2C(=O)O[C@@H](c3ccccc3)[C@@H](c3ccccc3)N2[C@@H](c2ccc(O)cc2)[C@]12C(=O)Nc1ccc(C#CCC(C(=O)OC)C(=O)OC)cc12", "Class Label": "high range"}
{"Smiles Entry": "C=C(C(=O)CC[C@@H](OC(=O)c1cccnc1)c1cccc(OCCO)c1)C(C)C", "Class Label": "high range"}
{"Smiles Entry": "[N-]=[N+]=NCc1ccccc1[C@H]1OC(c2ccc(OCCCO)cc2)=N[C@@]1(Cc1ccccc1N=[N+]=[N-])C(=O)O", "Class Label": "low range"}
{"Smiles Entry": "COC(=O)[C@@]1(Cc2ccccc2)[C@H]2c3cc(C(=O)N(C)C)n(Cc4ccc(Cl)c(C(F)(F)F)c4)c3C[C@H]2CN1C(=O)c1ccccc1", "Class Label": "low range"}
{"Smiles Entry": "CC(C)Cc1ccc(CN2CC[C@@H](NC(=O)c3ccccc3)C2)cc1", "Class Label": "high range"}
{"Smiles Entry": "CC(C)(C)OC(=O)CC[C@]1(C(N)=O)N=C(c2ccc(OCCCO)cc2)O[C@H]1c1ccccc1N=[N+]=[N-]", "Class Label": "mid range"}
{"Smiles Entry": "C=CCOC(=O)[C@H]1[C@@H]2C(=O)O[C@@H](c3ccccc3)[C@@H](c3ccccc3)N2[C@@H](c2ccc(OCCOC(=O)[C@H]3C[C@H]4C(=O)NCC(=O)N4[C@H]3c3ccc(O)cc3)cc2)[C@]12C(=O)Nc1ccccc12", "Class Label": "low range"}
{"Smiles Entry": "C=CC[C@]1(C(=O)NCCN2CCOCC2)N=C(c2ccc(OCCCO)cc2)O[C@H]1c1ccccc1", "Class Label": "mid range"}
{"Smiles Entry": "COC(=O)C(CC#Cc1ccc2c(c1)[C@]1(C(=O)N2)[C@H](c2ccccc2OCCO)N2[C@H](c3ccccc3)[C@H](c3ccccc3)OC(=O)[C@H]2[C@@H]1C(=O)N1CCN(c2ncccn2)CC1)C(=O)OC", "Class Label": "mid range"}
{"Smiles Entry": "COc1c(C)cc(-c2nc(-c3ccccc3)c3c(c2C)CO[Si]3(C(C)C)C(C)C)cc1C", "Class Label": "low range"}
{"Smiles Entry": "CO[C@H]1O[C@H](CO)[C@@H](OC(=O)Nc2ccccc2)[C@@H]2OC(=O)[C@@H](Cc3ccccc3)C/C=C/C[C@H](Cc3ccccc3)C(=O)O[C@@H]12", "Class Label": "mid range"}
